Test system: unanesthetized spontaneous hypertensive rat
assay.info: Antihypertensive activity, single oral medication in the spontaneous hypertensive rat (SH Rat)
Type: in vivo
experimental.setup: SH rat, 50.0 mg./kg. P.O.
Counter-ions that a name gives are not always drawn.
For each record, check the reported Actual reduction in blood pressure observed at the indicated dose: if it is below -20 mm Hg write y, else write n.

Determine if COc1ccc(CCC(C)NCC(O)c2ccc(OC(=O)c3ccccc3)c(SC)c2)cc1 (centres unmarked) [Example 15A, acetate salt] shows Actual reduction in blood pressure observed at the indicated dose strictly lower than -20 mm Hg.
n

Determine if CSc1cc(C(O)CNC(C)CCc2ccc(O)cc2)ccc1O (single isomer, unassigned) [Example 40B] shows Actual reduction in blood pressure observed at the indicated dose strictly lower than -20 mm Hg.
n

Determine if COc1ccc(CCCC(C)NCC(O)c2ccc(O)c(SC)c2)cc1 (centres unmarked) [Example 36, acetate salt] shows Actual reduction in blood pressure observed at the indicated dose strictly lower than -20 mm Hg.
n

Determine if COc1ccc(CCC(C)NCC(O)c2ccc(OC)c(SC)c2)cc1 (centres unmarked) [Ref Cpd II, hydrochloride, reference compound] shows Actual reduction in blood pressure observed at the indicated dose strictly lower than -20 mm Hg.
y

---

System: heart rate increase elicited by isoproterenol in the pentobarbitalized dog
assay.info: β-adrenergic blocking activity in the pentobarbitalized dog
Type: in vivo
experimental.setup: Canis lupus familiaris; 1.0 mg./kg. intravenous; read-out: Actual percentage inhibition of heart rate increase above control level at the indicated dose
Counter-ions that a name gives are not always drawn.
Consider the following molecules; for each one, report its inhibition at 1 mg/kg.
Lab book: enter the figure in %, no units written.

Returns the measured inhibition at 1 mg/kg for the input molecule. Input: COc1ccc(CC(C)NCC(O)c2ccc(OC(C)=O)c(SC)c2)cc1 (centres unmarked) [Example 2, hydrochloride]
60

Returns the measured inhibition at 1 mg/kg for the input molecule. Input: CC(=O)O.CSc1cc(C(O)CNC(C)(C)CCc2ccccc2)ccc1O (centres unmarked) [Example 28, acetate salt]
100

Returns the measured inhibition at 1 mg/kg for the input molecule. Input: COc1ccc(CCC(C)(C)NCC(O)c2ccc(O)c(SC)c2)cc1 (centres unmarked) [Example 30, acetate salt]
72

Returns the measured inhibition at 1 mg/kg for the input molecule. Input: CSc1cc(C(O)CNC(C)Cc2ccccc2)ccc1O (centres unmarked) [Example 22, acetate salt]
60

Returns the measured inhibition at 1 mg/kg for the input molecule. Input: CC(=O)O.CSc1cc(C(O)CNC(C)(C)Cc2ccccc2)ccc1O (centres unmarked) [Example 20, acetate salt]
56

---

Consider the following compounds; for each one, report its ED (40 mm Hg).
System: unanesthetized spontaneous hypertensive rat
assay.info: Antihypertensive activity, single oral medication in the spontaneous hypertensive rat (SH Rat)
Format: in vivo
experimental.setup: Rattus norvegicus; single oral dose required to induce a 40 mm average reduction in systolic blood pressure; read-out: Antihypertensive Activity SH Rat AHD40 mg./kg. P.O.
Where a name gives a salt, the structure may show the parent alone.
Lab book: enter the figure in mg/kg, no units written.

What measured ED (40 mm Hg) is associated with COc1ccc(CC(C)NCC(O)c2ccc(OC(C)=O)c(SC)c2)cc1 (stereo not shown) [Example 2, hydrochloride] on unanesthetized spontaneous hypertensive rat?
10

What measured ED (40 mm Hg) is associated with CSc1cc(C(O)CNC(C)Cc2ccccc2)ccc1O (stereo not shown) [Example 22, acetate salt] on unanesthetized spontaneous hypertensive rat?
35

What measured ED (40 mm Hg) is associated with CSc1cc(C(O)CNC(C)CCc2ccccc2)ccc1O (stereo not shown) [Example 32, acetate salt] on unanesthetized spontaneous hypertensive rat?
5

What measured ED (40 mm Hg) is associated with COc1ccc(CC(C)NCC(O)c2ccc(O)c(SC)c2)cc1 (stereo not shown) [Example 3, acetate salt] on unanesthetized spontaneous hypertensive rat?
20

What measured ED (40 mm Hg) is associated with COc1ccc(CCC(C)NCC(O)c2ccc(O)c(SC)c2)cc1 (stereo not shown) [Example 5, acetate salt] on unanesthetized spontaneous hypertensive rat?
15

---

Consider the following compounds; for each one, report its ED50.
System: heart rate increase elicited by isoproterenol in the pentobarbitalized dog
assay.info: β-adrenergic blocking activity in the pentobarbitalized dog
Assay type: in vivo
experimental.setup: Canis lupus familiaris; approximate intravenous dose causing 50% inhibition of isoproterenol-elicited heart rate increase; read-out: Adrenergic Activity Dog β-blockade AED50
Where a name gives a salt, the structure may show the parent alone.

What measured ED50 is associated with COc1ccc(CC(C)NCC(O)c2ccc(O)c(SC)c2)cc1 (stereo not shown) [Example 3, acetate salt] on heart rate increase elicited by isoproterenol in the pentobarbitalized dog?
0.1 mg/kg

What measured ED50 is associated with CC(=O)O.CSc1cc(C(O)CNC(C)(C)Cc2ccccc2)ccc1O (stereo not shown) [Example 20] on heart rate increase elicited by isoproterenol in the pentobarbitalized dog?
< 1 mg/kg

What measured ED50 is associated with COc1ccc(CC(C)NCC(O)c2ccc(OC(C)=O)c(SC)c2)cc1 (stereo not shown) [Example 2, hydrochloride] on heart rate increase elicited by isoproterenol in the pentobarbitalized dog?
< 1 mg/kg

What measured ED50 is associated with CSc1cc(C(O)CNC(C)Cc2ccccc2)ccc1O (stereo not shown) [Example 22, acetate salt] on heart rate increase elicited by isoproterenol in the pentobarbitalized dog?
< 1 mg/kg

---

Consider the following compounds; for each one, report its ED (40 mm Hg).
Tested on: unanesthetized spontaneous hypertensive rat
assay.info: Antihypertensive activity, single oral medication in the spontaneous hypertensive rat (SH Rat)
Format: in vivo
experimental.setup: Rattus norvegicus; single oral dose required to induce a 40 mm average reduction in systolic blood pressure; read-out: Antihypertensive Activity SH Rat AHD40 mg./kg. P.O.
Counter-ions that a name gives are not always drawn.

Returns the measured ED (40 mm Hg) for the input compound. Input: COc1ccc(CCC(C)NCC(O)c2ccc(OC)c(SC)c2)cc1 (stereo not shown) [Ref Cpd II, hydrochloride, reference compound]
> 50 mg/kg

Returns the measured ED (40 mm Hg) for the input compound. Input: CSc1cc(C(O)CNC(C)CCc2ccc(O)cc2)ccc1O (single isomer, unassigned) [Example 40B]
> 50 mg/kg

Returns the measured ED (40 mm Hg) for the input compound. Input: COc1ccc(CCC(C)(C)NCC(O)c2ccc(O)c(SC)c2)cc1 (stereo not shown) [Example 30, acetate salt]
20 mg/kg

Returns the measured ED (40 mm Hg) for the input compound. Input: COc1ccc(CCCC(C)NCC(O)c2ccc(O)c(SC)c2)cc1 (stereo not shown) [Example 36, acetate salt]
> 50 mg/kg

---

Consider the following compounds; for each one, report its ED (40 mm Hg).
Test system: unanesthetized spontaneous hypertensive rat
assay.info: Antihypertensive activity, single oral medication in the spontaneous hypertensive rat (SH Rat)
Format: in vivo
experimental.setup: Rattus norvegicus; single oral dose required to induce a 40 mm average reduction in systolic blood pressure; read-out: Antihypertensive Activity SH Rat AHD40 mg./kg. P.O.
Where a name gives a salt, the structure may show the parent alone.

Returns the measured ED (40 mm Hg) for the input compound. Input: COc1ccc(CC(C)NC(C)C(O)c2ccc(O)c(SC)c2)cc1 (centres unmarked) [Example 24, acetate salt]
> 20 mg/kg

Returns the measured ED (40 mm Hg) for the input compound. Input: CC(=O)O.CSc1cc(C(O)CNC(C)(C)CCc2ccccc2)ccc1O (centres unmarked)
~10 mg/kg

Returns the measured ED (40 mm Hg) for the input compound. Input: COc1ccc(CCC(C)NCC(O)c2ccc(SC)c(O)c2)cc1 (centres unmarked) [Ref Cpd I, acetate salt, reference compound]
> 50 mg/kg

Returns the measured ED (40 mm Hg) for the input compound. Input: CC(=O)O.CSc1cc(C(O)CNC(C)(C)Cc2ccccc2)ccc1O (centres unmarked)
~50 mg/kg

Returns the measured ED (40 mm Hg) for the input compound. Input: COc1ccc(CCC(C)NCC(O)c2ccc(OC(=O)c3ccccc3)c(SC)c2)cc1 (centres unmarked) [Example 15A, acetate salt]
> 50 mg/kg
